Data credit: ChEMBL document CHEMBL1157539

tested on: Plasmodium falciparum; test: GSK_TCMDC: Inhibition of Plasmodium falciparum 3D7 in whole red blood cells, using parasite LDH activity as an index of growth. Test compounds present at 2uM; format: functional
The entries below are paired with their reported Inhibition.
# value in %; strip the unit string

Below are worked cases with known answers.
## Input Dear colleague, I am looking for the recorded Inhibition of the following compound: Cc1cccc2nc(-c3ccc(-c4cccc(NC(=O)NCc5cccc(F)c5)c4)cc3)[nH]c12
## Output 94

## Input Can you check Cc1ncc([N+](=O)[O-])n1CCOC(=O)NC(Nc1ccc(Br)cc1)C(Cl)(Cl)Cl (stereo not given) next?
## Output 99

## Input Can you check COc1cc(CNc2ncc(-c3ccsc3)c(-c3nccs3)n2)cc(OC)c1 next?
## Output 86

## Input Can you check COc1cccc(CN2CCCC(CCC(=O)Nc3ccc(C(F)(F)F)cc3)C2)c1O (stereo not given) next?
## Output 98

Here is the next item to consider.
## Input Dear colleague, I am looking for the recorded Inhibition of the following compound: Cl.O=C(Nc1ccc(Cl)c(Cl)c1)N1CCc2ccc(OCCCN3CCCCC3)cc2CC1
## Output 92

---

test system: Plasmodium falciparum; assay: GSK_TCMDC: Inhibition of Plasmodium falciparum Dd2 in whole red blood cells, using parasite LDH activity as an index of growth. Test compounds present at 2uM; assay type: functional
The entries below are paired with their reported Inhibition.
# value in %; strip the unit string

Below are worked cases with known answers.
## Input Dear colleague, I am looking for the recorded Inhibition of the following compound: O=C(NCCCCCN1CCCN(C(=O)Nc2ccc(F)c(C(F)(F)F)c2)CC1)C1CC1c1ccc(Cl)c(Cl)c1 (centres undefined)
## Output 1

## Input Can you check O=C(Nc1ccc(F)c(Cl)c1)c1cc([N+](=O)[O-])cc2cn[nH]c12 next?
## Output 67

## Input Can you check COc1ccc2nccc([C@@H](O)CN3CCC(NCc4nc5c(C#N)cccc5[nH]4)CC3)c2c1.O=C(O)C(=O)O next?
## Output 9

## Input Can you check COc1cc2nc(N(C)Cc3cc4c(Cl)cccc4s3)nc(N)c2cc1OC.Cl next?
## Output 27

## Input Can you check CCCCCCCCCCS(=O)(=O)N[C@H](COCc1cccc(Oc2ccccc2)c1)COP(=O)([O-])OC.[Li+] next?
## Output 0

***
## Input Dear colleague, I am looking for the recorded Inhibition of the following compound: O=C(CCn1cncn1)N1CCCC(c2[nH]c3ccccc3c2-c2ccncc2)C1 (centres undefined)
## Output 79

## Input Can you check Cc1nc2ccc3ccc(CNc4ccc(C(=O)N[C@@H](CCC(=O)O)C(=O)N[C@@H](Cc5cccs5)C(=O)O)c(F)c4)cc3c2c(=O)[nH]1 next?
## Output 96

## Input Can you check CC(C)N(Cc1ccc(-c2ccc(C(F)(F)F)cc2)cc1)C(=O)Cn1c(SCc2cccc(F)c2F)cc(=O)c2cc(CN3CCCCC3)ccc21.Cl next?
## Output 59

## Input Can you check COCCNC(=O)C(CNC(=O)c1ccc2c(c1)OCO2)NC(=O)c1ccc(-c2ccccc2)cc1 (centres undefined) next?
## Output 3

---

tested on: Plasmodium falciparum; test: GSK_TCMDC: Inhibition of Plasmodium falciparum Dd2 in whole red blood cells, using parasite LDH activity as an index of growth. Test compounds present at 2uM; format: functional
measure: Inhibition (%)
# value in %; strip the unit string

Below are worked cases with known answers.
## Input What reported Inhibition corresponds to Cc1noc(C)c1-c1cccc(CNCc2cccc(-c3ccc(-c4nc5cccc(C)c5[nH]4)s3)c2)c1.O=C(O)C(F)(F)F on Plasmodium falciparum?
## Output 75

## Input Can you check CCN(CC)CCN(Cc1ccc(-c2ccc(C(F)(F)F)cc2)cc1)C(=O)Cn1c(CCc2ccc(F)cc2)nc(=O)c2sccc21.O=C(O)C(O)C(O)C(=O)O next?
## Output 90

## Input Can you check CCOC(=O)CNC(=O)c1cc(=O)c2ccccc2o1 next?
## Output 0

## Input Can you check Cc1nc(N)nc(N)c1CCCOc1cccc(Cl)c1 next?
## Output 0

Here is the next item to consider.
## Input What reported Inhibition corresponds to CCOC(=O)COc1cccc(CNc2ccc3nc(N)nc(N)c3c2)c1 on Plasmodium falciparum?
## Output 99
